Literature compilation of Ki measurements on UniProt:P13945.
State the answer as a number, implicitly in nM.

O=C1c2cccc3cccc(c23)C(=O)N1CC1CCN(CC(O)COc2ccc3[nH]ccc3c2)CC1 (stereo not drawn) : 8500
COc1ccc(C(C)(C)NC[C@H](O)c2ccc(O)c(NS(C)(=O)=O)c2)cc1 : 7
COc1cccc(C(Cc2ccccc2)NCC(O)c2ccc(O)c(NS(C)(=O)=O)c2)c1 (stereo not drawn) : 230
COc1ccc(C(Cc2ccccc2)NCC(O)c2ccc(O)c(NS(C)(=O)=O)c2)c(OC)c1 (stereo not drawn) : 70
COc1ccc(OCC(O)CN2CCC(CN3C(=O)c4cccc5cccc(c45)C3=O)CC2)c(C(C)(C)C)c1 (stereo not drawn) : 3380
COc1ccc([C@H](CCc2ccccc2Cl)NC[C@H](O)Cc2ccc(O)c(NS(C)(=O)=O)c2)cc1OC : 7
COc1ccc(CC(Cc2ccc(OC)c(OC)c2)NC[C@@H](O)Cc2ccc(O)c(NS(C)(=O)=O)c2)cc1OC : 170

Now let's try a different one.
Tell me the measured Ki of CS(=O)(=O)Nc1cc([C@@H](O)CN[C@H](Cc2ccccc2)c2ccc(OC(F)F)c(OC(F)F)c2)ccc1O , please.
38

###

Literature compilation of pKi measurements on UniProt:P13945.
pKi: −log10 of the molar value.
Param threshold (7) applies to pKi; output met when value >= threshold, not met when value < threshold.

COc1ccc([C@@H](Cc2cccc(Cl)c2)NC[C@@H](O)Cc2ccc(O)c(NS(C)(=O)=O)c2)cc1OC : met
CS(=O)(=O)Oc1cccc2c(CCNC[C@H](O)c3cccc(NS(=O)(=O)c4cccc(N)c4)c3)c[nH]c12 : met
CS(=O)(=O)Oc1cccc2c(CCNC[C@H](O)c3cccc(NS(=O)(=O)c4cccs4)c3)c[nH]c12 : met

Could you now look at the following molecule, please?
Is pKi at least 7? Consider C=CCc1ccccc1OCC(O)CNC1CCN(C)CC1 (stereo not given)
not met

###

Literature compilation of Ki measurements on Beta-3 adrenergic receptor (Homo sapiens).
Label 1 when Ki < 3000 nM; otherwise -1.

CCc1ccc(C(Cc2ccccc2)NCC(O)c2ccc(O)c(NS(C)(=O)=O)c2)cc1CC (configuration not stated) : 1

# strict comparison: is reported Ki < 3000 nM? input = CS(=O)(=O)Nc1cc(OC[C@@H](O)CN[C@H](Cc2ccccc2)c2ccc(OC(F)F)cc2)ccc1O
1

# strict comparison: is reported Ki < 3000 nM? input = CNc1cc(-c2csc(N(C)C(=O)c3ccc(F)cc3)n2)ncn1
-1

# strict comparison: is reported Ki < 3000 nM? input = O=C(c1ccc(F)cc1)C1CCN(CC(O)COc2cccc3[nH]c4ccccc4c23)CC1 (configuration not stated)
1

# strict comparison: is reported Ki < 3000 nM? input = CS(=O)(=O)Nc1cc(C(O)CNCCc2ccc(OCC(=O)O)cc2)ccc1O (configuration not stated)
-1

# strict comparison: is reported Ki < 3000 nM? input = C=CCc1ccc(OCC(O)CN2CCC(CN3C(=O)c4cccc5cccc(c45)C3=O)CC2)c(OC)c1 (configuration not stated)
-1

# strict comparison: is reported Ki < 3000 nM? input = CS(=O)(=O)Nc1cc(C(O)CNC(Cc2ccccc2)c2ccccc2)ccc1O (configuration not stated)
1

# strict comparison: is reported Ki < 3000 nM? input = COC(=O)CCCCC(Cc1ccccc1)NCC(O)c1ccc(O)c(NS(C)(=O)=O)c1 (configuration not stated)
1

###

Literature compilation of pKi measurements on Beta-3 adrenergic receptor (Homo sapiens, UniProt P13945).
Sequence (P13945 whole entry): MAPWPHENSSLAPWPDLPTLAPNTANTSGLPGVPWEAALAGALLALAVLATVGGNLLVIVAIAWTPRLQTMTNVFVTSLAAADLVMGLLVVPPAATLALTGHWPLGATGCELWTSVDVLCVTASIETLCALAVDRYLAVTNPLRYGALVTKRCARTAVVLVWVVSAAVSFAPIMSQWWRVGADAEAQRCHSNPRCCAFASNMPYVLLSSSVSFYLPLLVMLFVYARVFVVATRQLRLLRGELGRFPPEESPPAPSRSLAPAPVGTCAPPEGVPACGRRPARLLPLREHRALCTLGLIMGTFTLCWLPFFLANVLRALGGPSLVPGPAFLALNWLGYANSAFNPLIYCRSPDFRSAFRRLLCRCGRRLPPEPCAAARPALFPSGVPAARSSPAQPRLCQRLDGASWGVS
The value called pKi is obtained by taking minus log10 of the concentration in mol/L.

Illustrative cases are given below, each with its answer.
COc1ccc([C@@H](Cc2ccccc2)NC[C@H](O)c2ccc(O)c(NS(C)(=O)=O)c2)cn1 : 7.60
C=CCc1ccccc1OCC(O)CN1CCC(CN2C(=O)CCCC2=O)CC1 (centres undefined) : 4.96
O=C1c2cccc3cc(O)cc(c23)C(=O)N1CC1CCN(CC(O)COc2cccc3[nH]c4ccccc4c23)CC1 (centres undefined) : 6.23

Tell me the measured pKi of COc1cc2c3c(cccc3c1)C(=O)N(CC1CCN(CC(O)COc3ccccc3C(C)C)CC1)C2=O (centres undefined) , please.
6.16

Tell me the measured pKi of COc1ccc(CCNCC(O)Cc2ccc(O)c(NS(C)(=O)=O)c2)cc1OC (centres undefined) , please.
5.14

Tell me the measured pKi of CS(=O)(=O)Nc1cc(C(O)CNC(CCCCC(=O)O)Cc2ccccc2)ccc1O (centres undefined) , please.
4.06

Tell me the measured pKi of CCCCCC(Cc1ccccc1)NCC(O)c1ccc(O)c(NS(C)(=O)=O)c1 (centres undefined) , please.
6.49

Tell me the measured pKi of COc1ccc([C@@H](Cc2ccccc2)NC[C@H](O)COc2ccc(O)c(NS(C)(=O)=O)c2)cc1OC , please.
8.52

Tell me the measured pKi of CS(=O)(=O)Nc1c(O)ccc([C@@H](O)CN)c1F , please.
3.92

Tell me the measured pKi of CS(=O)(=O)Nc1cc(C(O)CNC(Cc2ccccc2)Cc2ccccc2)ccc1O (centres undefined) , please.
5.82

Tell me the measured pKi of COc1ccc(CNC[C@H](O)COc2ccc(O)c(NS(C)(=O)=O)c2)cc1 , please.
6.44

Tell me the measured pKi of CS(=O)(=O)Nc1cc([C@@H](O)CNC(Cc2ccccc2)c2ccc(OCC(F)(F)F)cc2)ccc1O (some centres undefined) , please.
7.08
